- TARGET_SYSTEM: Aβ25-35 fibrils (Homo sapiens, UniProt P05067)
- TEST_METHOD_NOTES: Binding of anthracyclinones and anthracyclines to Aβ25-35 fibrils (fluorescent detection of bound compound)
- CONDITION_LABEL: 10% dimethylsulfoxide in distilled water, 60 minutes, room temperature, rectangular hyperbola (binding isotherm), read-out: EC50 (affinity of the test compounds for the Aβ fibrils)
- Description: Binding of anthracyclinones and anthracyclines to Aβ fibrils Fibrils from Aβ25-35 peptide are suspended in a solution of 10% dimethylsulfoxide in distilled water containing the test compound at various concentrations and incubated at room temperature for 60 minutes. […] Fibril pellets are washed three times with 0.3 ml of 10% DMSO in distilled water, dissolved in ethanol and the bound compound is quantified by fluorescent detection. […]
READOUT_LABEL: EC50 (µM)

1: COc1cccc2c1C(=O)c1c(O)c3c(c(O)c1C2=O)C[C@@](O)(C(=O)CN1CCN(S(=O)(=O)C(F)(F)F)CC1)C[C@@H]3O [Compound A3]
2: COc1cccc2c1C(=O)c1c(O)c3c(c(O)c1C2=O)C[C@@](O)(C(=O)CO)C[C@@H]3O[C@H]1C[C@H](N)[C@H](I)[C@H](C)O1 [IDOX, iododoxorubicin, reference compound]
Of 1 and 2 , which shows the smaller EC50 value? Answer format: the label of the selected item.
1
(1: 8.16 µM, 2: 52 µM)
